# System: EKVX NSCLC
# Assay Details: NCI tumour cell line growth inhibition, 48 h
Entries and their TGI values follow.
Test Readout: TGI

| Molecule | Test Readout | Value Measured |
| --- | --- | --- |
| Cc1cc(S(=O)(=O)NC2=NCc3c(F)cccc3N2)c(S)cc1Cl | TGI | > 100 µM |
| COc1cc([C@H]2c3cc4c(cc3[C@H](NCc3ccc(F)cc3)C3COC(=O)[C@H]32)OCO4)cc(OC)c1O (stereo not given in full) | TGI | 28.8 µM |
| Cc1cccc(NC(=O)CSc2nnc(-c3ccc(N=Cc4ccc(Cl)cc4)cc3)o2)c1 | TGI | > 100 µM |
| COc1ccc(C2C(C(=O)O)=C(COC(C)=O)Oc3cc4c(cc32)OCO4)c(OC)c1 (stereo not given) | TGI | > 100 µM |
| CC(C)(C)c1cc(C(C)(C)C)c2sc(=O)oc2c1O | TGI | 29.2 µM |
| O=C(c1ccccc1)C1C(c2ccccc2[N+](=O)[O-])N1C1CCCCC1 (stereo not given) | TGI | 30.8 µM |
| CCOC(=O)c1c(-c2ccc(Cl)cc2)c(C#N)c(=S)n(C2OC(COC(C)=O)C(OC(C)=O)C(OC(C)=O)C2OC(C)=O)c1C (stereo not given) | TGI | > 100 µM |
| CN(C)CC(=O)N1CCc2c([nH]c3ccccc23)C1c1cccnc1 (stereo not given) | TGI | > 100 µM |
| C=C(C)C1CCC2(C)C1CCC1(C)C2CCC2C3(C)C4OC(OC4=O)C(C)(C)C3CCC21C (stereo not given) | TGI | > 100 µM |
| c1ccc(-c2nc3ccccc3[nH]2)c(OCCCCCOc2ccccc2-c2nc3ccccc3[nH]2)c1 | TGI | 32.7 µM |
| COC(=O)c1sc(=S)c2sc(C(=O)OC)c(C(=O)OC)c2c1C(=O)OC | TGI | > 100 µM |
| O=C(Nc1ccc(-n2cc(-c3ccncc3)c(-c3ccc(Cl)c(O)c3)n2)cc1)c1ccc(Cl)c(Cl)c1 | TGI | > 100 µM |
| COc1cc(/C=C2\C(=O)N(c3ccc(Cl)cc3)C(c3ccccc3)S2(=O)=O)cc(OC)c1OC (stereo not given) | TGI | > 100 µM |
| O=S1(=O)CS(=O)(=O)OCCCCCO1 | TGI | > 100 µM |
| CN(Cc1ccccc1)C(=S)S | TGI | > 100 µM |
| Cc1ccc(/C=C2\CCCC(C(NO)c3ccc(C)cc3)C2=NO)cc1 (stereo not given) | TGI | > 100 µM |
| Clc1cc(Cl)cc(Nc2ccc3c(OCCCN4CCOCC4)cccc3n2)c1 | TGI | 9.15 µM |
| Cc1c(C(=O)/C=C/c2ccc3c(c2)OCO3)[n+](=O)c2ccccc2n1[O-] | TGI | 69.3 µM |
| CC[P+](c1ccccc1)(N(C)C)N(C)C | TGI | > 100 µM |
| CCOC(=O)CC1C(C(=O)OCC)=Cn2c([nH]c3cccc4cccc2c43)=C1C(=O)OCC (stereo not given) | TGI | > 100 µM |

###

Entries and their TGI values follow.
# Test system: HT29 colon
# Assay Details: NCI tumour cell line growth inhibition, 48 h

| Compound | TGI |
| --- | --- |
| O=C(NCCOC(=O)CCCCCCCCC(=O)OCCNC(=O)NC(=O)c1cn(Cc2ccccc2)c(=O)[nH]c1=O)NC(=O)c1cn(Cc2ccccc2)c(=O)[nH]c1=O | > 100 µM |
| CC[P+](c1ccccc1)(N(C)C)N(C)C | > 100 µM |
| COC(=O)c1sc2c(Cl)c(Cl)sc2c1Cl | > 100 µM |
| C[C@]12CC[C@H]3[C@@H](CCC4=C/C(=N/OCCN5CCCCC5)CC[C@@]43C)[C@@H]1CC[C@@H]2O | 15.2 µM |
| Cc1ccccc1NC(=O)C(=O)CC(=O)c1sc(-n2nc(-c3ccccc3)cc2-c2ccccc2)nc1C | > 100 µM |
| Cc1cc2nc3c(C(OC4OC(CO)C(O)C(O)C4O)C(O)CO)nn(-c4ccc(F)cc4)c3nc2cc1C (stereo not given) | > 100 µM |
| CN(Cc1cnc2nc(N)nc(N)c2n1)c1c(Cl)cc(C(=O)NC(CCC(=O)O)C(=O)O)cc1Br (stereo not given) | > 100 µM |
| COc1ccc(N=C2C(=O)Nc3ccc(Br)cc32)cc1 | 58.1 µM |
| CCOC(=O)/C(=C/c1cn(C(C)=O)c2ccccc12)P(=O)(OC)OC | > 100 µM |
| COC(=O)c1c2c(cc3c1CC1(Cc4cc5c(cc4C1)CCCC5)C3)CCCC2 | > 100 µM |

###

# Tested on: HT29 colon
# Assay Details: NCI tumour cell line growth inhibition, 48 h
Where a SMILES comes first, the peptide text is derived from it. The star is where a group is joined. Fmoc = O=C(OCC1c2ccccc2-c2ccccc21)*; OBn = c1ccc(CO*)cc1; tBu = CC(C)(C)*
Entries and their TGI values follow.

| Compound | Measurement Target | TGI |
| --- | --- | --- |
| CC(=O)N1CN2C(=O)CCC2c2cc(C)ccc21 (configuration not stated) | HT29 colon | > 100 µM |
| COC(=O)[C@]1(c2cc3ccccc3[nH]2)CC2CNC1C1OC(C)(C)OC21 (some centres not stated) | HT29 colon | > 100 µM |
| Fc1nc(Sc2ncnc3nc[nH]c23)nc(-c2c3ccccc3c3sc4ccccc4n23)n1 | HT29 colon | > 100 µM |
| Nc1ccc2c3c1cccc3c(=O)n1c3ccc(Cc4ccc5c(c4)nc4c6ccc(N)c7cccc(c(=O)n54)c76)cc3nc21 | HT29 colon | > 100 µM |
| O=c1[nH]c(NCCCCCO)nc2nc[nH]c12 | HT29 colon | > 100 µM |
| OCCN1CCCN(CCCN2c3ccccc3Sc3ccc(C(F)(F)F)cc32)CC1 | HT29 colon | 3.75 µM |
| C=C1CCC2C(C)(CO)C(O)CCC2(C)C1C/C=C1\C(=O)OCC1O (configuration not stated) | HT29 colon | 25.8 µM |
| CC1OC23CCCCC2C(C#N)(C#N)C1(C#N)C(=N)O3 (configuration not stated) | HT29 colon | > 100 µM |
| CC1CC(C)(C)CC(OCCN2CCCCC2)(c2ccccc2)C1 (configuration not stated) | HT29 colon | 9.92 µM |
| O=C(Nc1nnc(-c2ccccc2)o1)C(SC(=S)N1CCCC1)c1ccccc1 (configuration not stated) | HT29 colon | > 100 µM |
| COc1ccc(/C=C2\N=C3N(Cc4ccccc4)C=C(N)N3C2=O)cc1 | HT29 colon | > 100 µM |
| c1ccc(CN2CCC(CNc3ncnc4ccccc34)C2)cc1 (configuration not stated) | HT29 colon | > 100 µM |
| COc1cc([C@H]2c3cc4c(cc3[C@H](NCc3ccc(F)cc3)C3COC(=O)[C@H]32)OCO4)cc(OC)c1O (some centres not stated) | HT29 colon | 27 µM |
| O=C([CH-]C(=O)c1ccccc1)c1ccccc1.[CH2-]C.[CH2-]C.[Tl+3] | HT29 colon | > 100 µM |
| CC(OC(C)(C)C)C(NC(=O)OCC1c2ccccc2-c2ccccc21)C(=O)NC(Cc1ccccc1)C(=O)OCc1ccccc1 (configuration not stated) (Fmoc-Thr(tBu)-Phe-OBn; configuration not given here) | HT29 colon | > 100 µM |
| Nc1c(-c2ccccc2)c2ccc([N+](=O)[O-])cc2c(=O)n1-c1cccc(C(=O)O)c1 | HT29 colon | > 100 µM |
| Cc1cc(C)n(C(C)(C(=O)Cc2ccccc2)n2nc(C)cc2C)n1 | HT29 colon | > 100 µM |
| COc1ccc([C@H]2c3[nH]c4ccccc4c3C[C@H]3C(=O)N(CCCCCCC(=O)NO)CC(=O)N23)cc1 | HT29 colon | > 33.3 µM |
| CC(=O)O[C@H]1C(=O)[C@@]2(C)C([C@H](OC(=O)c3ccccc3)[C@]3(O)C[C@H](OC(=O)[C@H](O)[C@@H](NC(=O)c4ccc(Cl)cc4)c4ccccc4)C(C)=C1C3(C)C)C1(OC(C)=O)CO[C@@H]1C[C@@H]2O (some centres not stated) | HT29 colon | 10.4 µM |
| COc1ccccc1-c1cc(=O)c2cccnc2[nH]1 | HT29 colon | > 100 µM |
| CCOc1ccccc1NC(=O)C1=C(C)NC(C)=C(C(=O)Nc2ccccc2OCC)C1c1ccc2c(c1)OCO2 | HT29 colon | > 100 µM |
| CC[C@]1(O)C[C@@H]2CN(CCc3c([nH]c4ccccc34)[C@@](C(=O)OC)(c3cc4c(cc3OC)N(C)[C@H]3[C@@](O)(C(=O)OC)[C@H](OC(=O)CCCBr)[C@]5(CC)C=CCN6CC[C@]43[C@@H]65)C2)C1 | HT29 colon | > 100 µM |
| CC(C)(C)[C@H]1NC(=O)CN1C(=O)OCc1ccccc1 | HT29 colon | > 100 µM |
| CC1=NN(C(=O)CC(=O)Nc2cccc(C)c2)C(=O)C1N=Nc1ccc(C(=O)O)cc1 (configuration not stated) | HT29 colon | > 100 µM |
| CCOC(=O)CC1(N)CC2c3ccccc3OC(=O)C2C(=O)N1 (configuration not stated) | HT29 colon | > 100 µM |
| CC1CC[C@@]2(OC1)OC1C[C@H]3[C@@H]4CC=C5C[C@@H](OC6OC(CO)C(OC7OC(CO)C(O)C(O)C7O)C(O)C6OC6OC(C)C(O)C(O)C6O)CC[C@]5(C)[C@H]4CC[C@]3(C)C1[C@@H]2C (some centres not stated) | HT29 colon | 0.951 µM |
| CCOC(=O)CC1C(C(=O)OCC)=Cn2c([nH]c3cccc4cccc2c43)=C1C(=O)OCC (configuration not stated) | HT29 colon | > 100 µM |
| Cc1ccc(-n2cc(/C(N)=N/O)c3ccccc3c2=O)cc1 | HT29 colon | > 100 µM |
| O=c1c2ccccc2n2nnc3ccc(NCCNCCO)c1c32 | HT29 colon | 6.49 µM |
| CC(=O)OCCc1cc2ccccc2oc1=O | HT29 colon | > 100 µM |
| CN(C)CN(C)c1nc(N(C)C)nc(N(C)C)n1 | HT29 colon | > 100 µM |
| CC(=O)CCN1CC2CN=NC2(C#N)C1 (configuration not stated) | HT29 colon | > 100 µM |
| N#CC(c1cc(Cl)ncn1)c1nc2cc(C(F)(F)F)ccc2s1 (configuration not stated) | HT29 colon | 12.3 µM |
| COc1cc(/C=C2\C(=O)N(c3ccc(Cl)cc3)C(c3ccccc3)S2(=O)=O)cc(OC)c1OC (configuration not stated) | HT29 colon | > 100 µM |
| COC(=O)C1C(=O)NC2(C)CC1c1ccccc1O2 (configuration not stated) | HT29 colon | > 100 µM |
| CN(Cc1ccccc1)C(=S)S | HT29 colon | > 100 µM |
| NC(=O)N1N=C2c3ccccc3OC[C@H]2[C@@H]1c1ccccc1 | HT29 colon | 67.6 µM |
